Please go through the items and note down their activation at 3 µM.
Molecular target: AMPK beta 1 (Homo sapiens, UniProt Q13131+Q9Y478)
Construct: in-cell-ELISA for phospho-ACC (Acetyl-CoA carboxylase 1) in HepG2 cells (liver); endogenous in cells; host or cells: HepG2 (assignment to the beta 1 column inferred)
Sequence (Q9Y478 2-270 limits assumed): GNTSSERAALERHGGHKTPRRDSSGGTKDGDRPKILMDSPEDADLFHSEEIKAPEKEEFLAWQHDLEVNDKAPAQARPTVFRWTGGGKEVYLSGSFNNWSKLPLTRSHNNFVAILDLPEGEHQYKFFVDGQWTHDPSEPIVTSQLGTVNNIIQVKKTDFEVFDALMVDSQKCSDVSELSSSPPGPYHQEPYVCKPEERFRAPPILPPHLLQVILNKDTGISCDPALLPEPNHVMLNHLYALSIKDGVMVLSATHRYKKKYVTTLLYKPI
Sequence (Q13131 whole entry): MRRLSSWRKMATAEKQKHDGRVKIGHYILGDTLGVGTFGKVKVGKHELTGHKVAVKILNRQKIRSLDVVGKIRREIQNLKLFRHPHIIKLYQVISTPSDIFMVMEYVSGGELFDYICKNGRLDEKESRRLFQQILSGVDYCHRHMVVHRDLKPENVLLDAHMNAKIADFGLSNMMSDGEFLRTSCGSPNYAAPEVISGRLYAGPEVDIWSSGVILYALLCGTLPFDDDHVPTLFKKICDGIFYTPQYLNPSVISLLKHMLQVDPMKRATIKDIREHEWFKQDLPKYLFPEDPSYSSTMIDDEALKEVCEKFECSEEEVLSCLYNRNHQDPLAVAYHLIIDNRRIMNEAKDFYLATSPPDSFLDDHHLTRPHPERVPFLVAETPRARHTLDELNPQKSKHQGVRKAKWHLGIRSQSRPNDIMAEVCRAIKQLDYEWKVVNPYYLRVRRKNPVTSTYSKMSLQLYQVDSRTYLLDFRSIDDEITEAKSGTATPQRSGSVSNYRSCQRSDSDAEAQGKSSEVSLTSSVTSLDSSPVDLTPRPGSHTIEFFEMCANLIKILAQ
Sequence (P54619 whole entry partner): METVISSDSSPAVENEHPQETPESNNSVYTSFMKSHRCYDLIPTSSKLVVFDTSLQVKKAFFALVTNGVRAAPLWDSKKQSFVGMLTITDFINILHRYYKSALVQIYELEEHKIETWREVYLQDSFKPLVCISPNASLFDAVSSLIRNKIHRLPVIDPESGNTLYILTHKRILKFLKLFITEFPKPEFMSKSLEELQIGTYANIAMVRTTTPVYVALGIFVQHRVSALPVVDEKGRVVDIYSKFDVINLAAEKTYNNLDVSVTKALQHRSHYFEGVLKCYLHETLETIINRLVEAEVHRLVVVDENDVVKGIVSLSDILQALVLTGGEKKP
Test: in-cell-ELISA for phospho-ACC: activation of AMPK, beta 1 (HepG2 cells / C2C12 myotubes)
Assay type: cell-based
Conditions: 2 h, 3 μM, percentage activation over vehicle control, read-out: Percentage activation of beta 1 at given concentration

Given the compound Cc1ccc(C2CC23C(=O)Nc2cc(Cl)c(-c4ccc(-n5cccn5)cc4)cc23)cc1C(=O)O (centres unmarked) , what is its reported activation at 3 µM? 62%

And what about the compound CC(C)c1ccc(C2CC23C(=O)Nc2cc(Cl)c(-c4ccc(C5(CO)CC5)cc4)cc23)cc1C(=O)O (centres unmarked) ? 83%

What would you report for Cc1ccc(C2CC23C(=O)Nc2cc(Cl)c(-c4ccc(-c5ccc(-c6nnn[nH]6)cc5)cc4)cc23)cc1C(=O)O (centres unmarked) ? 19%

Input Cn1cc(C2CC23C(=O)Nc2cc(Cl)c(-c4ccc(-c5ccccc5O)cc4)cc23)cc1C(=O)O (centres unmarked) 43%

Repeat with O=C(O)Cc1ccc(C2CC23C(=O)Nc2cc(Cl)c(-c4ccc(-c5ccccc5O)cc4)cc23)cc1 (centres unmarked) 71%

Now try O=C1Nc2cc(F)c(-c3ccc(-c4ccccc4O)cc3)cc2C12CC2c1cccc(-c2nnn[nH]2)c1 (centres unmarked) . 23%

Now the compound Cc1ccc(C2CC23C(=O)Nc2cc(Cl)c(-c4ccc(-c5ncccc5O)cc4)cc23)cc1C(=O)O (centres unmarked) 99%

Then this compound: Cc1ccc(C2CC23C(=O)Nc2cc(F)c(-c4ccc(-c5ccncc5)cc4)cc23)cc1C(=O)O (centres unmarked) 55%

What would you report for Cc1ccc(C2CC23C(=O)N(C(C)C)c2cc(Cl)c(-c4ccc(-c5ccncc5)cc4)cc23)cc1C(=O)O (centres unmarked) ? 56%

Please give the result for Cc1ccc(C2CC23C(=O)N(C)c2cc(Cl)c(-c4ccc(-c5ccncc5)cc4)cc23)cc1C(=O)O (centres unmarked) too. 134%

Check COc1ccc(C2CC23C(=O)Nc2cc(Cl)c(-c4ccc(-c5ccncc5)cc4)cc23)cc1CC(=O)O (centres unmarked) too. 59%

Same question, Cc1ccc(C2CC23C(=O)Nc2cc(Cl)c(-c4ccc(-c5ccccc5O)cn4)cc23)cc1CC(=O)O (centres unmarked) this time 43%

// same read-out, input: Cc1ccc(C2CC23C(=O)Nc2cc(F)c(-c4ccc(-c5ccccc5O)cc4)cc23)cc1CC(=O)O (centres unmarked) 66%

Entry to check: CC(C)c1ccc(C2CC23C(=O)Nc2cc(Cl)c(-c4ccc(-c5ncccc5O)cc4)cc23)cc1C(=O)O (centres unmarked) 63%

For Cc1ccc(C2CC23C(=O)Nc2cc(Cl)c(-c4ccc(-c5ccncc5)cc4)cc23)cc1CC(=O)O (centres unmarked) then? 81%

And for COCN1C(=O)C2(CC2c2ccc(C)c(C(=O)O)c2)c2cc(-c3ccc(-c4ccncc4)cc3)c(Cl)cc21 (centres unmarked) ? 66%

What about O=C1Nc2cc(Cl)c(-c3ccc(-c4ccc(-n5cncn5)cc4)cc3)cc2C12CC2c1ccc(-c2nnn[nH]2)cc1 (centres unmarked) ? 21%

Now consider CN1C(=O)C2(CC2c2ccc(CC(=O)O)cc2)c2cc(-c3ccc(-c4ccncc4)cc3)c(Cl)cc21 (centres unmarked) . 33%

// same read-out, input: COc1ccc(C2CC23C(=O)Nc2cc(F)c(-c4ccc(-c5ccccc5O)cc4)cc23)cc1C(=O)O (centres unmarked) 64%

Lookup CC(C)c1ccc(C2CC23C(=O)Nc2cc(Cl)c(-c4ccc(-c5ccc(-n6cncn6)cc5)cc4)cc23)cc1C(=O)O (centres unmarked) 47%

Okay, and Cc1ccc(C2CC23C(=O)Nc2cc(F)c(-c4ccc(-c5ccccc5O)cc4)cc23)cc1C(=O)O (centres unmarked) ? 133%

Consider next the compound CC(C)c1ccc(C2CC23C(=O)Nc2cc(Cl)c(-c4ccc(N5CCC[C@H]5CO)cc4)cc23)cc1C(=O)O (some centres unmarked) in the same way. 34%

Thanks! And Cc1ccc(C2CC23C(=O)Nc2cc(Cl)c(-c4ccc(-c5ccc(-n6cnnn6)cc5)cc4)cc23)cc1C(=O)O (centres unmarked) ? 21%

Continue with Cc1ccc(C2CC23C(=O)Nc2cc(Cl)c(-c4ccc(-c5ccccc5O)cc4)cc23)cc1C(=O)O (centres unmarked) 104%

Moving on to the next compound: Cc1ccc(C2CC23C(=O)Nc2cc(Cl)c(-c4ccc(-c5ccc(-n6cncn6)cc5)cc4)cc23)cc1C(=O)O (centres unmarked) 100%

One more compound: Cc1ccc(C2CC23C(=O)Nc2cc(Cl)c(-c4ccc(-c5ccncc5)cc4)cc23)cc1C(=O)O (centres unmarked) 42%

Try O=C(O)Cc1cccc(C2CC23C(=O)Nc2cc(Cl)c(-c4ccc(-c5ccccc5O)cc4)cc23)c1 (centres unmarked) next. 73%

Same thing, different compound: COc1ccc(C2CC23C(=O)Nc2cc(Cl)c(-c4ccc(-c5ccc(-n6ccnn6)cc5)cc4)cc23)cc1C(=O)O (centres unmarked) 85%

Please do the same for CCN1C(=O)C2(CC2c2ccc(OC)c(CC(=O)O)c2)c2cc(-c3ccc(-c4ccncc4)cc3)c(Cl)cc21 (centres unmarked) as well. 58%

###

Give activation at 1 µM for every item shown.
Molecular target: AMPK beta 1 (Homo sapiens, UniProt Q13131+Q9Y478)
Construct: in-cell-ELISA for phospho-ACC (Acetyl-CoA carboxylase 1) in HepG2 cells (liver); endogenous in cells; host or cells: HepG2 (assignment to the beta 1 column inferred)
Experiment: in-cell-ELISA for phospho-ACC: activation of AMPK, beta 1 (HepG2 cells / C2C12 myotubes)
Type: cell-based
Conditions: 2 h, 1 μM, percentage activation over vehicle control, read-out: Percentage activation of beta 1 at given concentration
Experimental: Activation of AMPK by various compounds were measured using in-cell-ELISA for phospho-ACC (Acetyl-CoA carboxylase 1) in HepG2 cells (liver) and fully differentiated myotubes (C2C12 cells) grown in 96 well plate. Cells were treated with 1 μM, 3 μM or 10 μM of the molecule (Example) for 2 h in serum free DMEM media. […] Absorbance values taken at 450 nm were normalized with total DNA (Hoechest stain). Results were expressed as percentage activation over vehicle control. […]
Respond numerically; units are % and should not be typed.

So what does the record say about activation at 1 µM for CC(C)c1ccc(C2CC23C(=O)Nc2cc(Cl)c(-c4ccc(-c5ccc(-n6cncn6)cc5)cc4)cc23)cc1C(=O)O (stereo not shown) ? 59

Same lookup for CCc1ccc(C2CC23C(=O)Nc2cc(Cl)c(-c4ccc(-c5ccc(-n6cncn6)cc5)cc4)cc23)cc1C(=O)O (stereo not shown) , please. 52

Would you mind doing O=C(O)c1cccc(C2CC23C(=O)Nc2cc(F)c(-c4ccc(-c5ccc(-n6cccn6)cc5)cc4)cc23)c1 (stereo not shown) as well? 58

Same thing, different compound: Cc1ccc(C2CC23C(=O)Nc2cc(Cl)c(-c4ccc(-c5ccncc5)cc4)cc23)cc1C(=O)O (stereo not shown) 66

###

Field: activation at 3 µM. Provide a value for each of the compounds that follow.
Molecular target: AMPK beta 1 (Homo sapiens, UniProt Q13131+Q9Y478)
Construct: in-cell-ELISA for phospho-ACC (Acetyl-CoA carboxylase 1) in HepG2 cells (liver); endogenous in cells; host or cells: HepG2 (assignment to the beta 1 column inferred)
Assay: in-cell-ELISA for phospho-ACC: activation of AMPK, beta 1 (HepG2 cells / C2C12 myotubes)
Assay type: cell-based
Settings: 2 h, 3 μM, percentage activation over vehicle control, read-out: Percentage activation of beta 1 at given concentration
Method: Activation of AMPK by various compounds were measured using in-cell-ELISA for phospho-ACC (Acetyl-CoA carboxylase 1) in HepG2 cells (liver) and fully differentiated myotubes (C2C12 cells) grown in 96 well plate. Cells were treated with 1 μM, 3 μM or 10 μM of the molecule (Example) for 2 h in serum free DMEM media. […] Absorbance values taken at 450 nm were normalized with total DNA (Hoechest stain). Results were expressed as percentage activation over vehicle control. […]
Field format: number, assumed %, no unit text.

# activation at 3 µM lookup, item CN1C(=O)C2(CC2c2ccc(C(C)(C)C(=O)O)cc2)c2cc(-c3ccc(-c4ccncc4)cc3)c(Cl)cc21 (stereo not shown) [Example 112] 30

Now consider O=C(O)Cc1cccc(C2CC23C(=O)Nc2cc(F)c(-c4ccc(-c5ccccc5O)cc4)cc23)c1 (stereo not shown) [Example 31] and answer again. 68

Now the same for O=C(O)c1cccc(C2CC23C(=O)Nc2cc(F)c(-c4ccc(-c5ccccc5O)cc4)cc23)c1 (stereo not shown) [Example 2] 60

Now this one: Cc1ccc(C2CC23C(=O)Nc2cc(Cl)c(-c4ccc(-c5ccccc5O)cc4)cc23)cc1C(=O)Nc1nnn[nH]1 (stereo not shown) [Example 183] 19

Entry to check: Cc1ccc(C2CC23C(=O)Nc2cc(Cl)c(-c4ccc(-c5ccc(-n6cncn6)cc5)cc4)cc23)cc1C(C)(C)O (stereo not shown) [Example 186] 32

Same again, this time with Cc1ccc(C2CC23C(=O)Nc2cc(Cl)c(-c4ccc(N5CCC[C@H]5CO)cc4)cc23)cc1C(=O)O (stereo partly shown) [Example 49] 53

Next entry: Cn1cc(C2CC23C(=O)Nc2cc(F)c(-c4ccc(-c5ccccc5O)cc4)cc23)cc1C(=O)O (stereo not shown) [Example 14] 48
